Target Of Assay: mutant B-RAF (Homo sapiens, UniProt P15056, V600E)
Construct: purchased Upstate (Charlottesville, Va.)
Sequence (P15056 whole entry V600E): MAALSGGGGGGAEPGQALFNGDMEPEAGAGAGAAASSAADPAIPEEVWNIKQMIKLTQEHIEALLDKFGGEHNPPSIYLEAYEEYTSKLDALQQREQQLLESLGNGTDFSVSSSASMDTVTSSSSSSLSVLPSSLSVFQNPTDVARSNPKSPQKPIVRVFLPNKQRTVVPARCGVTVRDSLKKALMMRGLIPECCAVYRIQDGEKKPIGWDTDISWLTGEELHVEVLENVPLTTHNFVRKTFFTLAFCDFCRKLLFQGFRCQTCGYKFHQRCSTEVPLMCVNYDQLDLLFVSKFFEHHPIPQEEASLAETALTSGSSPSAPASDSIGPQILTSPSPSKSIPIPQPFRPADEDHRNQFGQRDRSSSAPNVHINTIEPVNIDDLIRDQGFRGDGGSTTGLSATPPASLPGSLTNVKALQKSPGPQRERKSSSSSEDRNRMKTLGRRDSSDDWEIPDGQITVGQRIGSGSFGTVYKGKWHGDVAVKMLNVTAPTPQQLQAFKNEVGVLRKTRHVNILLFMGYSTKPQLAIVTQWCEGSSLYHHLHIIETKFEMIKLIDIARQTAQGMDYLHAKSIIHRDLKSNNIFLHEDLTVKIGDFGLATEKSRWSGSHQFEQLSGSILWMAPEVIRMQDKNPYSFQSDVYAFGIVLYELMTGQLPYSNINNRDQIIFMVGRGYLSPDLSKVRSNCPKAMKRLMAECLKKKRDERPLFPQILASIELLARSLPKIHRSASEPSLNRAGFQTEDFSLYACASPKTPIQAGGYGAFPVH
Measurement Description: RAF biochemical assay (MEK-1 phosphorylation, anti-phospho MEK1/2 detection)
Reported Conditions: read-out: Mutant B-RAF IC50
Please note: IC50 exactly at 2000 nM is false (0). Only values below 2000 nM get true (1).

Sample answers from the record:
>  <Query Smiles>
O=S(=O)(c1nnc[nH]1)N1CCC[C@@H](Nc2nccc(-c3c(-c4cccc(O)c4)nc4sccn34)n2)C1

>  <Label>
true (1)

$$$$
>  <Query Smiles>
O=S(=O)(c1ccc(Cl)cc1)N1CCC[C@@H](Nc2nccc(-c3c(-c4ccc(/C=N/O)cc4)nc4sccn34)n2)C1

>  <Label>
true (1)

$$$$
>  <Query Smiles>
COc1cccc(-c2nc3sccn3c2-c2ccnc(N[C@@H]3CCCN(S(=O)(=O)C4CC4)C3)n2)c1

>  <Label>
false (0)

$$$$
>  <Query Smiles>
COc1cccc(-c2nc3sccn3c2-c2ccnc(NC3CCNCC3)n2)c1

>  <Label>
false (0)

$$$$

Consider `COc1cccc(-c2nc3sccn3c2-c2ccnc(N[C@@H]3CCCNC3)n2)c1` . Does its IC50 lie strictly below 2000 nM? true (1)

* * *

Target Of Assay: mutant B-RAF (Homo sapiens, UniProt P15056, V600E)
Construct: purchased Upstate (Charlottesville, Va.)
Measurement Description: RAF biochemical assay (MEK-1 phosphorylation, anti-phospho MEK1/2 detection)
Reported Conditions: read-out: Mutant B-RAF IC50
Measured Attribute: IC50

>  <Molecule>
O=C(c1ccc(F)cc1)N1CCC(Nc2nccc(-c3c(-c4ccc(F)cc4)nc4occn34)n2)CC1

>  <Observed Value>
2.7 µM

$$$$
>  <Molecule>
O=C(Nc1ccccc1)N1CCC(Nc2nccc(-c3c(-c4ccc(F)cc4)nc4occn34)n2)CC1

>  <Observed Value>
4.73 µM

$$$$
>  <Molecule>
COC(=O)CCc1ccc(S(=O)(=O)N2CCC(Nc3nccc(-c4c(-c5cccc(O)c5)nc5sccn45)n3)CC2)cc1

>  <Observed Value>
0.01 µM

$$$$
>  <Molecule>
COc1ccc(-c2nc3sccn3c2-c2ccnc(NC3CCCN(S(=O)(=O)c4ccc(Cl)cc4)C3)n2)cc1OC (stereo in doubt)

>  <Observed Value>
0.696 µM

$$$$
>  <Molecule>
O=S(=O)(c1ccc(Cl)cc1)N1CCC[C@@H](Nc2nccc(-c3c(-c4cccc(/C=N\O)c4)nc4sccn34)n2)C1

>  <Observed Value>
0.018 µM

$$$$

mutant B-RAF (Homo sapiens, UniProt P15056, V600E) / IC50 / `CC(=O)Nc1ccc(-c2nc3sccn3c2-c2ccnc(NC3CCN(S(=O)(=O)c4ccc(Cl)cc4)CC3)n2)cc1` : value? > 3 µM

Next record, please: `N#Cc1cccc(-c2nc3sccn3c2-c2ccnc(NC3CCN(S(=O)(=O)c4ccc(Cl)cc4)CC3)n2)c1` 1.63 µM

* * *

Items are presented alongside their recorded inhibition at 10 µM.
Target Of Assay: mutant B-RAF (Homo sapiens, UniProt P15056, V600E)
Construct: purchased Upstate (Charlottesville, Va.)
Measurement Description: RAF biochemical assay (MEK-1 phosphorylation, anti-phospho MEK1/2 detection)
Reported Conditions: read-out: Mutant B-RAF % inhibition
Write the number in % without appending the unit.

For orientation, consider the following solved cases.
>  <Query Smiles>
O=S(=O)(c1cccc(F)c1)N1CCC[C@@H](Nc2nccc(-c3c(-c4ccc(F)cc4)nc4occn34)n2)C1

>  <Unit Descriptor>
%

>  <inhibition at 10 µM>
55

$$$$
>  <Query Smiles>
Fc1ccc(-c2nc3sccn3c2-c2ccnc(N[C@@H]3CCCNC3)n2)cc1

>  <Unit Descriptor>
%

>  <inhibition at 10 µM>
45

$$$$
>  <Query Smiles>
Cc1ccccc1S(=O)(=O)N1CCC[C@@H](Nc2nccc(-c3c(-c4ccc(F)cc4)nc4occn34)n2)C1

>  <Unit Descriptor>
%

>  <inhibition at 10 µM>
42

$$$$
>  <Query Smiles>
COc1cccc(S(=O)(=O)N2CCC[C@@H](Nc3nccc(-c4c(-c5ccc(F)cc5)nc5occn45)n3)C2)c1

>  <Unit Descriptor>
%

>  <inhibition at 10 µM>
34

$$$$
>  <Query Smiles>
COc1cccc(-c2nc3sccn3c2-c2ccnc(N[C@@H]3CCCN(C(=O)Nc4ccc(N(C)C)cc4)C3)n2)c1

>  <Unit Descriptor>
%

>  <inhibition at 10 µM>
19

$$$$

Tell me the measured inhibition at 10 µM of `O=C(NCC1CCCCC1)N1CCC[C@@H](Nc2nccc(-c3c(-c4ccc(F)cc4)nc4occn34)n2)C1` , please. 42

Next record, please: `COc1cccc(-c2nc3sccn3c2-c2ccnc(N[C@@H]3CCCN(C(=O)NCc4ccco4)C3)n2)c1` 50

Next record, please: `O=C(N1CCOCC1)N1CCC[C@@H](Nc2nccc(-c3c(-c4ccc(F)cc4)nc4occn34)n2)C1` 38

Next record, please: `O=S(=O)(c1ccc(Oc2ccccc2)cc1)N1CCC[C@@H](Nc2nccc(-c3c(-c4ccc(F)cc4)nc4occn34)n2)C1` 15

Next record, please: `COc1cccc(-c2nc3sccn3c2-c2ccnc(N[C@@H]3CCCN(C(=O)c4ccc(F)cc4)C3)n2)c1` 73

Next record, please: `O=S(=O)(c1ccc(OC(F)(F)F)cc1)N1CCC[C@@H](Nc2nccc(-c3c(-c4ccc(F)cc4)nc4occn34)n2)C1` 32
